Please go through the items and note down their Top.
# target_desc: T1, human chemokine (C-C motif) receptor 8 (CCR8) protein (human, UniProt P51685 1-355)
# T1 construct: whole, on cells; also called human CCR8
# test_summary: cell binding, CCR8-expressing U2OS cells, curve fit
Answer as a number with no unit attached.

Top reported for this binder 137-xi (antibody, V domains shown, also called 137D1H10; chimeric 137D1H10) VH: EVQLVESGGGLVQPKGSLKLSCTASGFTFNTYAMNWVRQAPGKGLEWVARIRSKANNYATYYADSVKDRFTISRDDSQRILYLQMNNLKAEDTAMYYCVRDRSRGEDYAMDYWGQGTSVTVSS VL: DIVMTQAAPSVPVTPGESVSISCRSSKSLLHSNGNTYLYWFLQRPGQSPQLLIYRMSNLASGVPDRFSGSGSGTAFTLRISRVEAEDVGVYYCMQHLEYPFTFGAGTKLELK : 33400

Quick note, Top for 137-H3L3 (antibody, V domains shown, Humanized 137D1H10) VH: EVQLVESGGGLVQPGGSLKLSCAASGFTFNTYAMNWVRQASGKGLEWVARIRSKANNYATYYADSVKDRFTISRDDSKNTLYLQMNNLKTEDTAVYYCVRDRSRGEDYAMDYWGQGTLVTVSS VL: DIVMTQSPLSLPVTPGEPVSISCRSSKSLLHSNANTYLYWFLQKPGQSPQLLIYRMSNLASGVPDRFSGSGSGTAFTLKISRVEAEDVGVYYCMQHLEYPFTFGQGTKLEIK landed at 31900

response.value for 137-H2L3 (antibody, V domains shown, Humanized 137D1H10) VH: EVQLVESGGGLVQPGGSLKLSCAASGFTFNTYAMNWVRQASGKGLEWVGRIRSKANNYATYYADSVKDRFTISRDDSKNTAYLQMNNLKTEDTAVYYCVRDRSRGEDYAMDYWGQGTLVTVSS VL: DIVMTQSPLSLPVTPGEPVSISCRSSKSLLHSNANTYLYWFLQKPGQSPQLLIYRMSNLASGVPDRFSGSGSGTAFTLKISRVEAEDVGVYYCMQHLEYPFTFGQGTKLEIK (field: Top) = 27300

Data point: 137-H2L2 (antibody, V domains shown, Humanized 137D1H10) VH: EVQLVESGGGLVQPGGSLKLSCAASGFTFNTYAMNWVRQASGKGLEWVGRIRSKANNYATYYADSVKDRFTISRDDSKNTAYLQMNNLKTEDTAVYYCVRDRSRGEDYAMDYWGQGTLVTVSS VL: DIVMTQSPLSLPVTPGEPASISCRSSKSLLHSNANTYLYWFLQKPGQSPQLLIYRMSNLASGVPDRFSGSGSGTAFTLKISRVEAEDVGVYYCMQHLEYPFTFGQGTKLEIK ; Top = 26300
